# System: Klebsiella pneumoniae
# EXPERIMENT: Antibacterial activity against Klebsiella pneumoniae ATCC 16425 after 24 hrs by serial dilution method
# Format: functional
# CONDITIONS: ATCC 16425, 24 h
MEASURE: log10 MIC (log10 of the value in mg/L)
Short version: log10 scale, MIC, mg/L.

Worked cases, log10 MIC given:
{"COMPOUND": "CCC(=O)NC1=NN(C(=O)CC)C2(S1)C1CCCC2C(c2ccccc2Cl)NC1c1ccccc1Cl (stereo unspecified)", "EXPERIMENTAL RESULT": 1.40}
{"COMPOUND": "CC(=O)NC1=NN(C(C)=O)C2(S1)C1CCCC2C(c2ccccc2Cl)NC1c1ccccc1Cl (stereo unspecified)", "EXPERIMENTAL RESULT": 1.40}
{"COMPOUND": "COc1ccc(C2C3CCCC(C(c4ccc(OC)cc4)N2C(C)=O)C32SC(NC(C)=O)=NN2C(C)=O)cc1 (stereo unspecified)", "EXPERIMENTAL RESULT": 1.40}
{"COMPOUND": "CCC(=O)N(C1=NN(C(=O)CC)C2(S1)C1CCCC2C(c2ccccc2Cl)NC1c1ccccc1Cl)c1ccccc1 (stereo unspecified)", "EXPERIMENTAL RESULT": 1.40}

Query: Lab note: record log10 MIC of CC(=O)NC1=NN(C(C)=O)C2(S1)C1CCCC2C(c2ccc(F)cc2)NC1c1ccc(F)cc1 (stereo unspecified) tested on Klebsiella pneumoniae.
Result: 1.10

Query: Lab note: record log10 MIC of CCC(=O)NC1=NN(C(=O)CC)C2(S1)C1CCCC2C(c2ccc(C)cc2)NC1c1ccc(C)cc1 (stereo unspecified) tested on Klebsiella pneumoniae.
Result: 1.40

Query: Lab note: record log10 MIC of CC(=O)NC1=NN(C(C)=O)C2(S1)C1CCCC2C(c2ccc(Cl)cc2)NC1c1ccc(Cl)cc1 (stereo unspecified) tested on Klebsiella pneumoniae.
Result: 1.70

Query: Lab note: record log10 MIC of CC(=O)N(C1=NN(C(C)=O)C2(S1)C1CCCC2C(c2ccc(Cl)cc2)N(C(C)=O)C1c1ccc(Cl)cc1)c1ccccc1 (stereo unspecified) tested on Klebsiella pneumoniae.
Result: 1.70

Query: Lab note: record log10 MIC of CC(=O)NC1=NN(C(C)=O)C2(S1)C1CCCC2C(c2ccc(C)cc2)NC1c1ccc(C)cc1 (stereo unspecified) tested on Klebsiella pneumoniae.
Result: 1.10

Source of measurements: ChEMBL document CHEMBL1268977
